tested on: 439559-082-T-J2-PDC spheroid viability; assay: Anticancer human tumor 439559-082-T-J2-PDC patient-derived colon adenocarcinoma cell line growth inhibition [POLQ]; details: second compound 0.0316 µM; first compound 1 µM; stronger effect = lower value; spheroids with HUVEC and MSC;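 also: spheroids exposed to compounds for seven days before readout; 100% = DMSO vehicle control viability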
Listing: viability, T/C of selected compounds
// note: answer is a bare numeric in %

Recorded viability, T/C, per entry:
{"COMPOUND": "CNCc1ccc(-c2[nH]c3cc(F)cc4c3c2CCNC4=O)cc1 + COC1C(OC(N)=O)C(O)C(Oc2ccc3c(O)c(NC(=O)c4ccc(O)c(CC=C(C)C)c4)c(=O)oc3c2C)OC1(C)C", "viability, T/C [%]": 101}
{"COMPOUND": "O=c1[nH]cc(F)c(=O)[nH]1 + Cc1cccc(N(C)C(=O)C2C(O)CCN2c2nc(C)cc(C(F)(F)F)c2C#N)c1", "viability, T/C [%]": 78.3}

Note: attention shifts to another entry.
Data request: Which viability, T/C value is on record for CCCS(=O)(=O)Nc1ccc(F)c(C(=O)c2c[nH]c3ncc(-c4ccc(Cl)cc4)cc23)c1F + COC1C(OC(N)=O)C(O)C(Oc2ccc3c(O)c(NC(=O)c4ccc(O)c(CC=C(C)C)c4)c(=O)oc3c2C)OC1(C)C ?
Data returned: 95.8

From: PubChem BioAssay AID1963841
